In this section, each of the binders is paired with its reported koff.
# assay-system: T1, wildtype feline IL-31 protein (Feline_IL31_wildtype) (feline)
# T1 construct: Full length feline IL-31 with C-terminal His tag, secreted from ExpiCHO cells; also called fIL-31
# T1 chain: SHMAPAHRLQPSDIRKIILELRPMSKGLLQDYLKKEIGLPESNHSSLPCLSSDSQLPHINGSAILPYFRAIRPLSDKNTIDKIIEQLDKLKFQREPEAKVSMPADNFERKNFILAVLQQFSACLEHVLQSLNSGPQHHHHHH
# test-protocol: SPR (Biacore), IL-31 on chip, 1:1 fit
I only need the number, in s⁻¹, no unit after it.

binder	koff, s⁻¹
Feline 15H05 1.1 FW2 (antibody, V domains shown, also called felinized 15H05 1.1 FW2) VH: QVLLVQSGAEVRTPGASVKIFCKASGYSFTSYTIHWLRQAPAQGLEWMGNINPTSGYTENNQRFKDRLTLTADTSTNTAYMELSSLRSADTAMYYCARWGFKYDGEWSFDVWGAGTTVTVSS VL: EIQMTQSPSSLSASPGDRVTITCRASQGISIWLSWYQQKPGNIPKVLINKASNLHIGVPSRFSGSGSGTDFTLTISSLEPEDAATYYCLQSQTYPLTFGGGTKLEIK	2.49e-05

Then this binder:
GET /value?item= Feline 15H05 2.1 (antibody, V domains shown, Feline heavy and kappa constant regions) VH: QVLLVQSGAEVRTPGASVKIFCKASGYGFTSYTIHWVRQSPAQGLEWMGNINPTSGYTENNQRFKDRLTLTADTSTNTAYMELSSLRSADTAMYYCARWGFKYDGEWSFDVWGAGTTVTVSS VL: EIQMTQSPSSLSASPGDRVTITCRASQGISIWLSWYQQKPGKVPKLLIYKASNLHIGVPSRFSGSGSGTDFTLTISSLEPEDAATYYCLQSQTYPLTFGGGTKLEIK &field=koff returns 0.00465
